Listing: glycan array binding signal (z-score) of selected binders
study system: Neu5Ac(a2-3)Gal(b1-3)[Fuc(a1-4)]GlcNAc
protocol summary: glycan array binding signal (z-score within array); higher = stronger binding
condition notes: glycan notation: IUPAC condensed, linker removed
Shown is part of a subset that was picked to be rich in the strongest signals.

Worked examples follow.
binder: RbmA (Vibrio cholerae), A0A2H4NFB8 (protein) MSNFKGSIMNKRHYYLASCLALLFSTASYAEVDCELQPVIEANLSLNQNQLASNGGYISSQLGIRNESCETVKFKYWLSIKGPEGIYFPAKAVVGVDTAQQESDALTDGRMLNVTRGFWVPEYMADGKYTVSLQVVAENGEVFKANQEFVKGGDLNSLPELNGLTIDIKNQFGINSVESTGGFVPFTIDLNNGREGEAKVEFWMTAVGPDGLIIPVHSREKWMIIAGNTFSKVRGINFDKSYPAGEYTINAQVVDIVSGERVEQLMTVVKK
glycan array binding signal (z-score): -1.17
--
binder: Epa11 (Candida glabrata) (protein) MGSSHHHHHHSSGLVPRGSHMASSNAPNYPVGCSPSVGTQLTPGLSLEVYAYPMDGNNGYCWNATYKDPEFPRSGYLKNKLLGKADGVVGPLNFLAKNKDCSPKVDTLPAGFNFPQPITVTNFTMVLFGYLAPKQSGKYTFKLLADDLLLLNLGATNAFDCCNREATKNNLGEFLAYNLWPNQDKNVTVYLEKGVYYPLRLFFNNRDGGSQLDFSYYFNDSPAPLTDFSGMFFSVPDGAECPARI
glycan array binding signal (z-score): -0.534

Consider the additional binder presented here.
Q: What glycan array binding signal (z-score) value was documented for this binder, Epa23 (Candida glabrata) (protein) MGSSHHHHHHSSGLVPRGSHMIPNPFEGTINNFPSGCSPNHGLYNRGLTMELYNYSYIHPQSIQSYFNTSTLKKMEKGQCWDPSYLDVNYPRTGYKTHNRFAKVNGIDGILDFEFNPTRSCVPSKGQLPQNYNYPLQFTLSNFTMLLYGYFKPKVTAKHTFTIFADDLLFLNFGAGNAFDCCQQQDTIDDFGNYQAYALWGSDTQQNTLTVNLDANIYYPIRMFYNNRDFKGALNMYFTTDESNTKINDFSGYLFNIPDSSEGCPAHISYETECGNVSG ?
A: -0.296
